Provide the recorded log10 of IC50 for the entries that follow.
target: human P2Y12 receptor (Homo sapiens (Human), UniProt Q9H244); experiment: Human P2Y12 recombinant cell membrane binding assay with 33P 2MeS-ADP; conditions: CHO cell membranes with recombinant human P2Y12; competition against 33P 2MeS-ADP
Sequence (Q9H244 whole entry): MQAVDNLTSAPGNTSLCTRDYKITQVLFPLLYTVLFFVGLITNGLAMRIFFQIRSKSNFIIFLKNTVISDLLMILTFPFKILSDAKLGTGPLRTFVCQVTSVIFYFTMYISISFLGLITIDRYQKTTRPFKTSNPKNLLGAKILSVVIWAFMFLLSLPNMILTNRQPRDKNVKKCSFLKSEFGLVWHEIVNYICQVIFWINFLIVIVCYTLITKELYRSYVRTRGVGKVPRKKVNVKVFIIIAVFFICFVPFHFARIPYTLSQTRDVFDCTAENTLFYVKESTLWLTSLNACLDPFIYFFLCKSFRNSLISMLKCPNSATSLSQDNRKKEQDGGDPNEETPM
Scale: log10; quantity: IC50; unit before log: nM

Req: Specify measured log10 of IC50 for CCOC(=O)N1CCN(C(=O)[C@H](CCC(=O)OCC2CCCC2)NC(=O)c2cc(OCC(=O)N3CCC[C@H]3C(=O)NC3CCC3)c3ccc(C)cc3n2)CC1 .
Resp: 1.85

Req: Specify measured log10 of IC50 for CCOC(=O)N1CCN(C(=O)[C@H](CCC(=O)O)NC(=O)c2cc(OCC(=O)N3CCC[C@H]3C(=O)NC3CCC3)c3cc(F)c(F)cc3n2)CC1 .
Resp: 1.81

Req: Specify measured log10 of IC50 for CCOC(=O)N1CCN(C(=O)[C@H](CCC(=O)O)NC(=O)c2cc(OCC(=O)N3CCC[C@H]3C(=O)NCC(F)(F)F)c3ccccc3n2)CC1 .
Resp: 1.83

Req: Specify measured log10 of IC50 for Cc1ccc2c(OCC(=O)N3CCC[C@H]3C(=O)NC3CCC3)cc(C(=O)NCC(=O)N3CCN(C(=O)OCCC(F)(F)F)CC3)nc2c1 .
Resp: 0.48

Req: Specify measured log10 of IC50 for CCOC(=O)N1CCN(C(=O)[C@H](CCC(=O)O)NC(=O)c2cc(O[C@H](C)C(=O)N3CCC[C@H]3C(=O)NCC3CC3)c3ccc(C)cc3n2)CC1 .
Resp: 0.70

Req: Specify measured log10 of IC50 for CCCCOC(=O)N1CCN(C(=O)[C@H](CCC(=O)O)NC(=O)c2cc(OCC(=O)N3CCC[C@H]3C(=O)NC3CCC3)c3ccc(C)cc3c2)CC1 .
Resp: 1.32

Req: Specify measured log10 of IC50 for CCCCOC(=O)N1CCN(C(=O)CNC(=O)c2cc(OCC(=O)N3CCC[C@H]3C(=O)NC3CCC3)c3ccccc3n2)CC1 .
Resp: 0.70

Req: Specify measured log10 of IC50 for CCOC(=O)[C@@H]1CCCN1C(=O)COc1cc(C(=O)N[C@@H](CCC(=O)O)C(=O)N2CCN(C(=O)OCC)CC2)nc2cc(C)ccc12 .
Resp: 2.12

Req: Specify measured log10 of IC50 for CCOC(=O)N1CCN(C(=O)[C@H](CCC(=O)O)NC(=O)c2cc(OCC(=O)N3CCCC3c3ccccc3)c3ccccc3n2)CC1 (stereo partly drawn) .
Resp: 2.01

Req: Specify measured log10 of IC50 for CCCCOC(=O)N1CC(NC(=O)[C@H](CCC(=O)O)NC(=O)c2cc(OCC(=O)N3CCC[C@H]3C(=O)NC3CCC3)c3ccccc3n2)C1 .
Resp: 1.52

Req: Specify measured log10 of IC50 for CCOC(=O)N1CCN(C(=O)[C@H](CC(=O)O)NC(=O)c2cc(OCC(=O)N3CCC[C@H]3C(=O)NC3CCC3)c3cc(F)c(C)cc3n2)CC1 .
Resp: 0.95

Req: Specify measured log10 of IC50 for CCOC(=O)N1CCN(C(=O)[C@H](CCC(=O)O)NC(=O)c2cc(O[C@H](C)C(=O)N3CCC[C@H]3C(=O)N3CCCCC3)c3ccc(C)cc3n2)CC1 .
Resp: 1.08
